# experimental_target: UniProt:P62942
# assay_text: Rotamase inhibition (FKBP-12)
# Type: biochemical
# test_conditions: Table I; read-out: Rotamase Inhibition Ki
Threshold 100 nM: Ki strictly smaller gives 1 (yes), otherwise 0 (no).

Some solved cases for reference:
>>> df
                                   compound  experimental_target  class_name
0  CCC(C)(C)C(=O)C(=O)N1CCCC[C@H]1C(=O)OCCCc1ccc2c(c1)OCO2 [Example 103]       UniProt:P62942      0 (no)
1  COc1ccc(CCCCOC(=O)[C@@H]2CCCCN2C(=O)C(=O)c2ccccc2)cc1       UniProt:P62942      0 (no)
2  O=C(C(=O)N1CCCC[C@H]1C(=O)OCCCC1CCCCC1)C1CCCCC1       UniProt:P62942      0 (no)
3  O=C(C(=O)N1CCCC[C@H]1C(=O)OCCCc1ccccc1)C1CCCCC1       UniProt:P62942      0 (no)
4  CCOC(=O)C1CCCCN1C(=O)C(C)=O (stereo not shown)       UniProt:P62942      0 (no)
5  CCC(C)(C)C(=O)C(=O)N1CCCCC1C(=O)OC(CCCc1ccccc1)CCc1ccc(OC)cc1 (stereo not shown)       UniProt:P62942     1 (yes)

Task: # TODO verify Ki < 100 nM strictly for this compound: CCC(C)(C)C(=O)C(=O)N1CCCCC1C(=O)OCC=Cc1cc(OC)c(OC)c(OC)c1 (stereo not shown)
Output: 1 (yes)

Task: Moving on to CCOC(=O)C1CCCCN1C(=O)C(=O)C(C)(C)CC (stereo not shown)
Output: 0 (no)

Task: Moving on to CCC(C)(C)C(=O)C(=O)N1CCCC[C@H]1C(=O)OCCCCc1ccc(OC)cc1
Output: 1 (yes)

Task: Moving on to CCOC(=O)C1CCCCN1C(=O)C(=O)c1ccccc1 (stereo not shown)
Output: 0 (no)

Task: Moving on to CCC(C)(C)C(=O)C(=O)N1CCCC[C@H]1C(=O)OCCCc1cc(OC)ccc1OC [Example 102]
Output: 1 (yes)

Task: Moving on to CCC(C)(C)C(=O)C(=O)N1CCCCC1C(=O)OCCCc1cc(OC)c(OC)c(OC)c1 (stereo not shown)
Output: 1 (yes)

Task: Moving on to CCC(C)(C)C(=O)C(=O)N1CCCC[C@H]1C(=O)OCCCc1cc(OC)ccc1OC [Example 93]
Output: 1 (yes)

Task: Moving on to CCC(C)(C)C(=O)C(=O)N1CCCCC1C(=O)OCC=Cc1ccccc1 (stereo not shown)
Output: 1 (yes)

###

Overview of recorded Ki for various compounds
# experimental_target: rotamase activity of FKBP-12 (Homo sapiens, UniProt P62942)
# Sequence (P62942 whole entry): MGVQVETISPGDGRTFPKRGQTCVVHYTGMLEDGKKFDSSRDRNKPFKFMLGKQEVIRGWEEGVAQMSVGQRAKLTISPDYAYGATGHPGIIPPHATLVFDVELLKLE
# assay_text: Rotamase inhibition (FKBP-12)
# Assay type: biochemical
# test_conditions: Table I; read-out: Rotamase Inhibition Ki
Could you kindly put the unit after your number?

                                   compound  readout  endpoint_value
0  COc1ccc(CCCCOC(=O)[C@@H]2CCCCN2C(=O)C(=O)C2CCCCC2)cc1 [Example 105]       Ki          103 nM
1  CCC(C)(C)C(=O)C(=O)N1CCCC[C@H]1C(=O)OC(CCCCc1ccccc1)c1ccccc1 (some centres unmarked) [Example 104]       Ki           20 nM
2  CCC(C)(C)C(=O)C(=O)N1CCCCC1C(=O)OCC=Cc1ccc(Cl)c(Cl)c1 (centres unmarked) [Example 90]       Ki         1800 nM
3  O=C(C(=O)N1CCCC[C@H]1C(=O)OCCCc1ccccc1)c1ccccc1 [Example 96]       Ki          740 nM
4  CCC(C)(C)C(=O)C(=O)N1CCCC[C@H]1C(=O)OCCCc1cccnc1 [Example 98]       Ki          130 nM
5  COc1ccc(CCCCOC(=O)[C@@H]2CCCCN2C(=O)Cc2cc(OC)c(OC)c(OC)c2)cc1 [Example 6]       Ki          140 nM
6  CC1(C)COC(=O)CCCCCCCCCOC(=O)[C@@H]2CCCCN2C(=O)C1=O [Example 19]       Ki           12 nM

Task: // query Ki value for entry CCC(C)(C)C(=O)C(=O)N1CCCC[C@H]1C(=O)OCCCc1ccc2c(c1)OCO2 [Example 94]
Output: 70 nM

Where do these numbers come from? They come from patent US6500843B2.
